Measured values drawn from ChEMBL document CHEMBL5233281 for this set.

- Test system: A549
- assay: Antiproliferative activity against human A549 cells assessed as inhibition of cell growth incubated for 72 hrs by CCK8 assay
- Assay type: functional, cell-based
- test-context: A549, 72 h
Overview of recorded IC50 for various molecules

[
  {
    "molecule": "c1ccc2cc(C3OCCc4c3[nH]c3ccccc43)ccc2c1 (stereo not drawn)",
    "IC50": "> 20 µM"
  },
  {
    "molecule": "COc1ccc(C2OCCc3c2[nH]c2ccccc32)cc1 (stereo not drawn)",
    "IC50": "18.9 µM"
  },
  {
    "molecule": "COc1cc(C2OCCc3c2[nH]c2ccccc32)cc(OC)c1OC (stereo not drawn)",
    "IC50": "19 µM"
  },
  {
    "molecule": "COc1ccc2cc(C3OCCc4c3n(Cc3ccccc3)c3ccccc43)ccc2c1 (stereo not drawn)",
    "IC50": "19.9 µM"
  },
  {
    "molecule": "COc1ccc(C2OCCc3c2[nH]c2ccccc32)cc1OC (stereo not drawn)",
    "IC50": "> 20 µM"
  },
  {
    "molecule": "COc1cccc(C2OCCc3c2[nH]c2ccccc32)c1 (stereo not drawn)",
    "IC50": "> 20 µM"
  }
]

// query Reported IC50, molecule Clc1ccc(C2OCCc3c2[nH]c2ccccc32)cc1 (stereo not drawn) : ____
// result 17.6 µM

// query Given the molecule CC(=O)Oc1ccc(C2OCCc3c2[nH]c2ccccc32)cc1 (stereo not drawn) , what is its reported IC50?
// result > 20 µM

----------
- assay: Selectivity index, ratio of IC50 for antiproliferative activity against human MCF-10A cells to IC50 for antiproliferative activity against human MDA-MB-231 cells
- Type: toxicity, cell-based
- test-context: MCF-10A cells and MDA-MB-231 cells, read-out: Ratio IC50
observation-type: selectivity ratio

[
  {
    "compound": "Fc1cc(F)cc(C2OCCc3c2[nH]c2ccccc32)c1 (stereo not given)",
    "observation-type": "selectivity ratio",
    "readout-value": 10.8
  }
]

Kindly consider the entry below.
// query Quick one: selectivity ratio for Fc1ccc(C2OCCc3c2[nH]c2ccccc32)cc1 (stereo not given) ?
// result 6.8

----------
This section presents compounds with their documented IC50 at 72 h values.
- assay: Antiproliferative activity against human MCF-10A cells assessed as inhibition of cell growth incubated for 72 hrs by CCK8 assay
- Assay type: toxicity, cell-based
Numeric answer only, unit µM assumed.

[
  {
    "compound": "Fc1cc(F)cc(C2OCCc3c2[nH]c2ccccc32)c1 (configuration not stated)",
    "readout-value": 24.6
  },
  {
    "compound": "COc1cc(C2OCCc3c2[nH]c2ccccc32)cc(OC)c1OC (configuration not stated)",
    "readout-value": 46.2
  },
  {
    "compound": "Fc1ccc(C2OCCc3c2[nH]c2ccccc32)cc1 (configuration not stated)",
    "readout-value": 32
  },
  {
    "compound": "COc1ccc2cc(C3OCCc4c3n(C)c3ccccc43)ccc2c1 (configuration not stated)",
    "readout-value": 30
  },
  {
    "compound": "COc1ccc(C2OCCc3c2[nH]c2ccccc32)cc1OC (configuration not stated)",
    "readout-value": 40.4
  }
]

// query What IC50 at 72 h value was documented for this compound, COc1ccc(C2OCCc3c2[nH]c2ccc(OC)cc32)cc1 (configuration not stated) ?
// result 51.9

// query What does the data say about its IC50 at 72 h? Entry: COc1ccc(C2OCCc3c2[nH]c2ccc(Br)cc32)cc1 (configuration not stated)
// result 45.1

// query Which IC50 at 72 h value is on record for COc1ccc(C2OCCc3c2[nH]c2ccccc32)cc1 (configuration not stated) ?
// result 35.9

// query Look up IC50 at 72 h: COc1ccc2cc(C3OCCc4c3n(Cc3ccccc3)c3ccccc43)ccc2c1 (configuration not stated)
// result 41.4

----------
- Tested on: A549
- assay: Antiproliferative activity against human A549 cells assessed as inhibition of cell growth incubated for 72 hrs by CCK8 assay
- Type: functional, cell-based
- test-context: A549, 72 h
pIC50: −log10 of the molar value.
Entries annotated with measured pIC50

[
  {
    "compound": "c1ccc(-c2ccc(C3OCCc4c3[nH]c3ccccc43)cc2)cc1 (configuration not stated)",
    "target": "A549",
    "readout-value": "< 4.70"
  },
  {
    "compound": "COc1ccc(C2OCCc3c2[nH]c2ccc(Br)cc32)cc1 (configuration not stated)",
    "target": "A549",
    "readout-value": "< 4.70"
  },
  {
    "compound": "c1ccc(C2OCCc3c2[nH]c2ccccc32)cc1 (configuration not stated)",
    "target": "A549",
    "readout-value": "< 4.70"
  }
]

// query Can you look up the measured pIC50 of Fc1cc(F)cc(C2OCCc3c2[nH]c2ccccc32)c1 (configuration not stated) for me?
// result 4.83

// query For the compound shown here, COc1ccc(C2OCCc3c2[nH]c2ccc(OC)cc32)cc1 (configuration not stated) , give the reported pIC50.
// result < 4.70

// query Using the record for COc1ccccc1C1OCCc2c1[nH]c1ccccc21 (configuration not stated) , report its pIC50.
// result < 4.70

// query What pIC50 value was documented for this compound, Cc1cccc(C2OCCc3c2[nH]c2ccccc32)c1 (configuration not stated) ?
// result < 4.70

----------
- assay: Selectivity index, ratio of IC50 for antiproliferative activity against human MCF-10A cells to IC50 for antiproliferative activity against human MDA-MB-231 cells
- Type: toxicity, cell-based
- test-context: MCF-10A cells and MDA-MB-231 cells, read-out: Ratio IC50
Strictly below 3 in selectivity ratio: condition met. Otherwise: condition not met.

Here's what some known entries look like.
[
  {
    "compound": "COc1ccc2cc(C3OCCc4c3[nH]c3ccccc43)ccc2c1 (stereo not drawn)",
    "classification": "condition not met"
  },
  {
    "compound": "COc1ccc(C2OCCc3c2[nH]c2ccccc32)cc1OC (stereo not drawn)",
    "classification": "condition met"
  },
  {
    "compound": "COc1cccc(C2OCCc3c2[nH]c2ccccc32)c1 (stereo not drawn)",
    "classification": "condition met"
  }
]

// query A record lists COc1ccc2cc(C3OCCc4c3n(C)c3ccccc43)ccc2c1 (stereo not drawn) . Is its selectivity ratio below 3?
// result condition not met

// query Just wondering, is selectivity ratio of COc1ccc2cc(C3OCCc4c3n(Cc3ccccc3)c3ccccc43)ccc2c1 (stereo not drawn) below 3?
// result condition met

// query Does the reported selectivity ratio of the following compound sit strictly below 3? COc1ccc(C2OCCc3c2[nH]c2ccc(Br)cc32)cc1 (stereo not drawn)
// result condition met

// query For COc1ccc(C2OCCc3c2[nH]c2ccccc32)cc1 (stereo not drawn) , is the recorded selectivity ratio below the cut-off of 3?
// result condition not met

----------
- assay: Antiproliferative activity against human MCF-10A cells assessed as inhibition of cell growth incubated for 72 hrs by CCK8 assay
- Format: toxicity, cell-based
Item-by-item account of IC50 at 72 h
Enter your answer as a number in µM; do not include the unit.

Some solved entries appear below for comparison.
[
  {
    "compound": "COc1ccc2cc(C3OCCc4c3[nH]c3ccccc43)ccc2c1 (stereo not drawn)",
    "readout-unit": "µM",
    "IC50 at 72 h": 21.9
  },
  {
    "compound": "Clc1ccc(C2OCCc3c2[nH]c2ccccc32)cc1 (stereo not drawn)",
    "readout-unit": "µM",
    "IC50 at 72 h": 35.4
  }
]

Continue with the next compound.
// query Find the recorded IC50 at 72 h belonging to COc1cccc(C2OCCc3c2[nH]c2ccccc32)c1 (stereo not drawn) and report it.
// result 40.8

----------
- System: A549
- assay: Antiproliferative activity against human A549 cells assessed as inhibition of cell growth incubated for 72 hrs by CCK8 assay
- Assay type: functional, cell-based
- test-context: A549, 72 h
molecules and their reported IC50
// units = µM; emit number, no label

Look over these answered cases.
[
  {
    "molecule": "COc1ccc2cc(C3OCCc4c3n(C)c3ccccc43)ccc2c1 (stereo not given)",
    "readout-unit": "µM",
    "readout-value": 17.5
  },
  {
    "molecule": "COc1ccc2cc(C3OCCc4c3[nH]c3ccccc43)ccc2c1 (stereo not given)",
    "readout-unit": "µM",
    "readout-value": 15.4
  }
]

// query Name the recorded IC50 for Fc1ccc(C2OCCc3c2[nH]c2ccccc32)cc1 (stereo not given) .
// result 19.4
